molecular target: Prostacyclin synthase (Sus scrofa); assay: Inhibition of porcine aorta prostacyclin PGI-2 synthase by bioassay method
List of IC50 values.

CC(=O)Nc1ccc(OCCn2ccnc2)cc1    > 100 µM
O=C(O)Cc1ccccc1OCCn1ccnc1    > 100 µM

Prompt: Look at this molecule and give its reported IC50. c1cn(CCOc2ccc(-c3nnn[nH]3)cc2)cn1
Completion: > 100 µM
